- PROCEDURE_SUMMARY: Quantitative High-Throughput drug screen in 47 multiple myeloma cell lines against the NCATS MIPE library collection: KMS26_JCRB cell viability assay (AID 1918975); further: nearly all actives have a fitted effect of over 45% in size
- CONDITION_NOTES: KMS26 myeloma cells viability, CellTiter-Glo ATP, 48 h; series mostly up to 45.8 µM
Inconclusive results are not listed. Active and inactive are the calls of the source. The call rests on the fitted dose curve; in most records, active means well fitted cell-killing curve with a large enough effect; inconclusive means small, poorly fitted or top-dose-only effect, or effect the other way; inactive means no such curve, though single readings can be large or run the other way.
A correct response names exactly one class from YES = active, NO = inactive

Look up the recorded call for CCOc1ccccc1N=Nc1c(C)[nH]n(-c2nc(-c3ccccc3)cs2)c1=O in this test.
YES

What is the recorded call for this compound in the test? O=C1C(CCC(O)c2ccc(F)cc2)C(c2ccc(O)cc2)N1c1ccc(F)cc1 (stereo not given)
NO

Assay result, entry CC1(C)[C@H]2CC[C@]3(C)[C@@H](C(=O)C=C4[C@@H]5C[C@@](C)(C(=O)O)CC[C@]5(C)CC[C@]43C)[C@@]2(C)CC[C@@H]1O — outcome?
NO

Dear all, I need the recorded test outcome for O=c1[nH]nc(OCCCc2ccc(Cl)cc2)c(NCc2cccnc2)c1Br , thank you.
YES

Short answer needed: outcome of this test for CN(C)CCOc1ccc(-c2nc(-c3ccc4c(c3)CCC4=NO)c(-c3ccncc3)[nH]2)cc1 ?
YES

###

- PROCEDURE_SUMMARY: Quantitative High-Throughput drug screen in 47 multiple myeloma cell lines against the NCATS MIPE library collection: LP1_DSMZ cell viability assay (AID 1918982); further: nearly all actives have a fitted effect of over 35% in size; further: potency means the concentration at half of the fitted maximal effect
- CONDITION_NOTES: LP1 myeloma viability, CellTiter-Glo ATP luminescence, 48 h; series mostly up to 45.8 µM
Inconclusive results are not listed. Calls of active or inactive are those of the source. Calls come from the whole dose curve; as a rule, active = well fitted cell-killing curve with a large enough effect; inconclusive = small, poorly fitted or top-dose-only effect, or effect the other way; inactive = no such curve, though single readings can be large or run the other way.
READOUT_NAME: Potency

Examples from the recorded data:
{"columns": ["COMPOUND", "RECORDED_RESULT"],
 "data": [
  ["CC(C)[C@H](O)C(=O)N[C@@H](C)C(=O)N[C@@H]1C(=O)N(C)CCc2ccccc21", "inactive"],
  ["CS(=O)(=O)c1ccc(C2=C(c3ccccc3)C(=O)OC2)cc1", "inactive"],
  ["CC(=O)OCC(=O)[C@@]12OC(C)(C)O[C@H]1C[C@H]1[C@@H]3C[C@H](F)C4=CC(=O)C=C[C@]4(C)[C@@]3(F)[C@@H](O)C[C@@]12C", "0.0264 µM (active)"],
  ["CCC(C)SSc1ncc[nH]1 (stereo not given)", "8.33 µM (active)"],
  ["COc1ccnc(CS(=O)c2nc3ccc(OC(F)F)cc3[nH]2)c1OC (stereo not given)", "inactive"]
]}

Recorded Potency for Cc1c(C(=O)Nc2ccc(N3C[C@@H](C)O[C@@H](C)C3)nc2)cccc1-c1ccc(OC(F)(F)F)cc1 , please?
9.35 µM (active)

What value of Potency has been recorded for this entry: O=C(O)C1=CC(O)C(O)[C@H](O)C1 (stereo not given in full)
inactive

Return reported Potency; argument: C[C@@]1(c2cc(-c3cncnc3)c(F)cc2F)CCSC(N)=N1
inactive

Can you look up the measured Potency of COc1cc(CNC(=O)CCCCC=CC(C)C)ccc1O for me?
inactive

Report Potency for CN(C)CCOc1ccc(-c2nc(-c3ccc4c(c3)CCC4=NO)c(-c3ccncc3)[nH]2)cc1 please.
20.9 µM (active)

###

- PROCEDURE_SUMMARY: qHTS drug screen for cell cycle checkpoint inhibitors in PARPi-resistant BRCA-mutant ovarian cancer cell lines. (AID 1963452)
- CONDITION_NOTES: PEO1/OlaR viability, CellTiter-Glo luminescence, 96 h; stronger effect = lower value
READOUT_NAME: Z-AUC
In your answer, state the number alone without any accompanying words.

These solved cases illustrate the format of a correct answer.
{"columns": ["COMPOUND", "Z-AUC"],
 "data": [
  ["Cc1ccccc1C(=O)c1ccc(Nc2ccc(Br)cc2N)cc1Cl", -0.304],
  ["O=C(Nc1cccc(C(F)(F)F)c1)Nc1cc(S(=O)(=O)NC2CC2)ccc1-c1ccsc1", -0.117],
  ["CNC(=O)c1ccc2c(C(=Nc3cccc(CN(C)C)c3)c3ccccc3)c(O)[nH]c2c1", -0.0393],
  ["COc1c(C)cnc(Cn2cnc3c(Cl)nc(N)nc32)c1C", -0.301],
  ["O=C(O)Cc1cccc(OCCCN(Cc2cccc(C(F)(F)F)c2Cl)CC(c2ccccc2)c2ccccc2)c1", -0.299]
]}

Requested field: Z-AUC. Item: CC[C@H](C=C[C@@H](C)[C@H]1CC[C@H]2[C@@H]3CC=C4C[C@@H](O)CC[C@]4(C)[C@@H]3CC[C@]12C)C(C)C
0.764

Item under review: COC(=O)[C@H](c1ccccc1Cl)N1CCc2sccc2C1 . Reported Z-AUC?
1.43

Look at this compound and give its reported Z-AUC. CC[C@@H]([C@H](C)O)n1ncn(-c2ccc(N3CCN(c4ccc(OCC5CO[C@@](Cn6cncn6)(c6ccc(F)cc6F)C5)cc4)CC3)cc2)c1=O (stereo not given in full)
0.357

###

- PROCEDURE_SUMMARY: qHTS assay for measurement of the activity of small molecule inhibitors on Zika virus induced Caspase-3 activity in human astrocytoma cells (AID 1224859);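 further: plate controls were ZIKV-infected untreated cells for no effect and uninfected cells for full effect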
- CONDITION_NOTES: SNB-19 ZIKV-induced caspase-3/7, luminescence, 6 h; series mostly up to 45.7 µM
Activity calls are given as the source filed them. Calls come from the whole dose curve; as a rule, active = well fitted inhibition curve with a large enough effect; inconclusive = small, poorly fitted or top-dose-only effect; inactive = no such curve, though single readings can be large or run the other way.

{"columns": ["COMPOUND", "outcome"],
 "data": [
  ["CCCC1OC2C[C@@H]3[C@H]4CCC5=CC(=O)C=C[C@]5(C)[C@H]4C(O)C[C@]3(C)[C@]2(C(=O)CO)O1 (stereo partly drawn)", "inactive"],
  ["O=[N+]([O-])c1ccc(Nc2ccccc2-c2ccccc2)c2nonc12", "inactive"],
  ["COc1nccc(-c2c(-c3ccc(F)cc3)ncn2C2CCNCC2)n1", "inactive"]
]}

###

- PROCEDURE_SUMMARY: Quantitative High-Throughput drug screen in 47 multiple myeloma cell lines against the NCATS MIPE library collection: KMS28BM_JCRB cell viability assay (AID 1919874); further: nearly all actives have a fitted effect of over 35% in size
- CONDITION_NOTES: CellTiter-Glo ATP, 48 h; series mostly up to 45.8 µM
Inconclusive results are not listed. Activity calls are given as the source filed them. Calls come from the whole dose curve; as a rule, active = well fitted cell-killing curve with a large enough effect; inconclusive = small, poorly fitted or top-dose-only effect, or effect the other way; inactive = no such curve, though single readings can be large or run the other way.
READOUT_NAME: outcome

{"columns": ["COMPOUND_STRUCTURE", "RECORDED_RESULT"],
 "data": [
  ["CC(=O)NCCC(=O)N[C@@H](CCC(N)=O)C(=O)N[C@@H](CO)C(=O)N[C@@H](CCC(N)=O)C(=O)N[C@@H](CCC(N)=O)C(=O)N[C@H](C(=O)N[C@@H](Cc1ccccc1)C(=O)N[C@]1(C)CCCCCCC=CCCC[C@@](C)(C(=O)N[C@@H](CCC(N)=O)C(=O)N[C@@H](CC(N)=O)C(N)=O)NC(=O)[C@H](CC(C)C)NC(=O)[C@H](CC(C)C)NC(=O)[C@@H](CCCNC(=N)N)NC(=O)[C@H](Cc2c[nH]c3ccccc23)NC(=O)[C@H](CC(C)C)NC(=O)[C@H](CC(N)=O)NC1=O)[C@H](C)O", "inactive"],
  ["Nc1ccn([C@@H]2O[C@H](CO)[C@@H](O)[C@H]2O)c(=O)n1", "inactive"]
]}

###

- PROCEDURE_SUMMARY: High-throughput drug toxicity screening in the BPDCN cell line Cal-1 (AID 1224825);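 further: cells exposed to compounds for 48 h; 100% = DMSO and 0% = bortezomib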
- CONDITION_NOTES: Cal-1 BPDCN cell viability, qHTS; at 45.8 µM (top of the series) unless noted
Threshold check on viability (% of control): strictly below 80% is true (1); on or above 80% is false (0).

Please review the entries below; each comes with its answer.
{"columns": ["COMPOUND_STRUCTURE", "CLASSIFICATION"],
 "data": [
  ["Cc1cnc(Nc2cccc(CN3CCOCC3)c2)nc1Nc1cccc(S(=O)(=O)NC(C)(C)C)c1", "true (1)"],
  ["Cc1ccc(C2=Nc3ccc(Cl)cc3OC2)cc1", "false (0)"],
  ["CCN1C[C@H](C)n2c(c(O)c3c(=O)n(Cc4ccc(F)c(Cl)c4)nc(C(=O)NC)c32)C1=O", "false (0)"],
  ["COc1ccc2c(c1)c(C1=C(c3c[nH]c4ccccc34)C(=O)NC1=O)cn2CCCN(C)C", "true (1)"]
]}

# input for lookup
API: query returns whether the molecule falls strictly under 80% in viability (% of control). Query: CCC[C@@H](NC(=O)[C@@H]1[C@H]2CCC[C@@H]2CN1C(=O)[C@@H](NC(=O)[C@@H](NC(=O)c1cnccn1)C1CCCCC1)C(C)(C)C)C(=O)C(=O)NC1CC1
true (1)

###

- PROCEDURE_SUMMARY: Quantitative High-Throughput drug screen in 47 multiple myeloma cell lines against the NCATS MIPE library collection: KMS28BM_JCRB cell viability assay (AID 1919874); further: nearly all actives have a fitted effect of over 35% in size; further: potency means the concentration at half of the fitted maximal effect
- CONDITION_NOTES: CellTiter-Glo ATP, 48 h; series mostly up to 45.8 µM
Inconclusive results are not listed. Activity calls are given as the source filed them. The call rests on the fitted dose curve; in most records, active means well fitted cell-killing curve with a large enough effect; inconclusive means small, poorly fitted or top-dose-only effect, or effect the other way; inactive means no such curve, though single readings can be large or run the other way.
READOUT_NAME: Potency

{"columns": ["COMPOUND", "Potency"],
 "data": [
  ["Cc1cnc(CNC(=O)c2c(=O)c3ccc(N4CCCN(C)CC4)nc3n3c2sc2ccccc23)cn1", "inactive"],
  ["CCCCC[C@H](O)C=C[C@H]1[C@H](O)CC(=O)[C@H]1CCCCCCC(=O)O", "inactive"],
  ["CC(NCCc1ccc(O)cc1)C(O)c1ccc(O)cc1 (centres undefined)", "inactive"],
  ["CC1(C)CC(=O)c2c(C(F)(F)F)nn(-c3ccc(C(N)=O)c(NC4CCC(O)CC4)c3)c2C1 (centres undefined)", "0.0372 µM (active)"],
  ["CC(C)CNc1ccnc(NCc2csc(-c3ccccc3)n2)n1", "16.6 µM (active)"]
]}

Continue with the compound presented below.
Which Potency value is on record for C[C@@H](N)c1ccc(C(=O)Nc2ccnc3[nH]ccc23)cc1 ?
23.5 µM (active)
